tested-on: human mAChR M1 (Homo sapiens, UniProt P11229)
assay-details: mAChR M1 cell-based functional assay (calcium mobilization), agonist mode: compound alone, Emax relative to acetylcholine maximum
condition-parameters: relative to the maximum for acetylcholine
readout-name: Emax (%)

In the examples that follow, each entry is paired with its recorded Emax.
molecule	units-text	recorded-value
[2H]C1([2H])c2ncccc2C(=O)N1Cc1c(F)cc(-c2ccc(OC[C@@H](C)OC)c3nn(C)cc23)cc1F [Compound 172]	%	27
[2H]C1([2H])c2ncccc2C(=O)N1Cc1ccc(-c2ccc(C)c3nn(C)cc23)cc1F [Compound 28]	%	28

[A] [2H]C([2H])([2H])Oc1cc(-c2cc(F)c(CN3C(=O)c4cccnc4C3([2H])[2H])c(F)c2)c2cn(C([2H])([2H])[2H])nc2c1 [Compound 87]
[B] [2H]C([2H])([2H])Oc1ccc(-c2cc(F)c(CN3C(=O)c4cccnc4C3([2H])[2H])c(F)c2)c2cn(C)nc12 [Compound 93]
[C] [2H]C1([2H])c2ncccc2C(=O)N1Cc1ccc(-c2cc(F)cc3nn(C)cc23)cc1C [Compound 84]
[D] [2H]C1([2H])c2ncccc2C(=O)N1Cc1c(C)cc(-c2cccc3nn(C)cc23)cc1F (single isomer, unassigned) [Compound 155]
Exercise: Order the entries by their reported Emax, beginning at the minimum. Returns: the labels listed in the requested order.
Key: C, A, B, D
(C: 2%, A: 11%, B: 21%, D: 34%)

[A] [2H]C1([2H])c2ncccc2C(=O)N1Cc1c(C)cc(-c2ccc3nn(C)cc3c2)cc1F [Compound 194]
[B] [2H]C([2H])([2H])Oc1cnc2c(c1)C(=O)N(Cc1c(F)cc(-c3ccc4nn(C)cc4c3)cc1F)C2([2H])[2H] [Compound 112]
[C] [2H]C1([2H])c2ncccc2C(=O)N1Cc1c(F)cc(-c2cccc3nn(C)cc23)cc1N(C)C [Compound 229]
Exercise: Please list these molecules in decreasing order of Emax. Would you mind listing the labels in the order asked for?
Key: A, C, B

[I] [2H]C1([2H])c2ncccc2C(=O)N1Cc1c(F)cc(-c2ccc(OC3CCOC3)c3nn(C([2H])([2H])[2H])cc23)cc1F (centres unmarked) [Compound 128]
[II] [2H]C1([2H])c2ncccc2C(=O)N1Cc1ccc(-c2ccc3nn(C)cc3c2)cc1 [Compound 12]
Exercise: # min-compare on Emax between I and II # reply format: chosen label
Key: II

[1] [2H]C1([2H])c2ncccc2C(=O)N1Cc1c(F)cc(-c2cn(C)c(=O)c3nn(C([2H])([2H])[2H])cc23)cc1F [Compound 91]
[2] [2H]C1([2H])c2ncccc2C(=O)N1Cc1c(F)cc(-c2cc(C(F)F)cc3nn(C)cc23)cc1F [Compound 81]
Exercise: Of the two listed items, which has the higher Emax? First: 1 Second: 2 # respond with the chosen item's label
Key: 1
(1: 22%, 2: 2%)

* * *

tested-on: human mAChR M1 (Homo sapiens, UniProt P11229)
assay-details: mAChR M1 cell-based functional assay (calcium mobilization), agonist mode: compound alone, Emax relative to acetylcholine maximum
condition-parameters: human mAChR M1
readout-name: Agonist Activity Human M1 EC50

Worked cases, Agonist Activity Human M1 EC50 given:
molecule	Agonist Activity Human M1 EC50
[2H]C([2H])([2H])Oc1cnc2c(c1)C(=O)N(Cc1c(F)cc(-c3cccc4nn(C([2H])([2H])[2H])cc34)cc1F)C2([2H])[2H]	Inactive
[2H]C1([2H])c2ncccc2C(=O)N1Cc1ccc(-c2ccc3cn(C)nc3c2)cc1	Inactive
[2H]C1([2H])c2ncccc2C(=O)N1Cc1c(F)cc(-c2ccc(S(C)(=N)=O)c3nn(C)cc23)cc1F (stereo not shown)	Inactive
[2H]C1([2H])c2ncccc2C(=O)N1Cc1c(F)cc(-c2ccc(C(F)(F)F)c3nn(C)cc23)cc1OCC(C)C	Inactive
[2H]C1([2H])c2ncccc2C(=O)N1Cc1c(F)cc(-c2ccc(Cl)c3nn(C)cc23)cc1F	Inactive
[2H]C1([2H])c2ncccc2C(=O)N1Cc1c(F)cc(-c2cc(F)cc3c2cnn3C([2H])([2H])[2H])cc1F	Inactive

Exercise: Kindly indicate its recorded Agonist Activity Human M1 EC50. Item: `[2H]C1([2H])c2ncccc2C(=O)N1Cc1c(F)cc(-c2cc(F)c(Cl)c3nn(C([2H])([2H])[2H])cc23)cc1F`
Key: Inactive

* * *

tested-on: human mAChR M1 (Homo sapiens)
assay-details: mAChR M1 cell-based functional assay (calcium mobilization), PAM mode: increase in the EC20 acetylcholine response
readout-name: EC50 (nM)

smiles-code	units-text	EC50
[2H]C1([2H])c2ncccc2C(=O)N1Cc1c(F)cc(-c2cccc3nn(C([2H])([2H])[2H])c(F)c23)cc1C1CC1	nM	1050
[2H]C1([2H])c2ncc(Br)cc2C(=O)N1Cc1c(F)cc(-c2cccc3nn(C)cc23)cc1F	nM	1360

[a] [2H]C1([2H])c2ncccc2C(=O)N1Cc1c(F)cc(-c2cccc3nn(C(C)C)cc23)cc1F
[b] [2H]C1([2H])c2ncccc2C(=O)N1Cc1c(F)cc(-c2ccc3nn(C)cc3c2)cc1Cl
[c] [2H]C1([2H])c2ncccc2C(=O)N1Cc1c(F)cc(-c2cccc3nn(C)cc23)cc1F
Exercise: // ranking: key=EC50, reverse=True Sort and list the labels as requested.
Key: a, c, b

* * *

tested-on: human mAChR M1 (Homo sapiens)
Sequence (P11229 1-460): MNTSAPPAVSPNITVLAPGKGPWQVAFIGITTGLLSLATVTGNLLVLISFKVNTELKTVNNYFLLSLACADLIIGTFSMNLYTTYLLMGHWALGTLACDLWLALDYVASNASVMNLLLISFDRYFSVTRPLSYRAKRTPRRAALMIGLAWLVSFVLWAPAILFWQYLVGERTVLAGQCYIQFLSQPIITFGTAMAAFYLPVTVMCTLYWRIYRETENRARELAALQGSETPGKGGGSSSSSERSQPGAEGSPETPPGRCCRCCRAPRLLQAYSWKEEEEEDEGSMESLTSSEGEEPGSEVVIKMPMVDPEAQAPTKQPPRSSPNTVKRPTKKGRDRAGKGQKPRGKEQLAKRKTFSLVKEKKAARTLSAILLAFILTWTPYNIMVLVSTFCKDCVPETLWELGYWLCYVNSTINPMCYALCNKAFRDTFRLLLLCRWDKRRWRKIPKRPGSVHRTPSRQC
assay-details: mAChR M1 cell-based functional assay (calcium mobilization), PAM mode: increase in the EC20 acetylcholine response
readout-name: Emax (%)

smiles-code	Emax [%]
[2H]C1([2H])c2ncccc2C(=O)N1Cc1c(F)cc(-c2ccc(C(F)(F)F)c3nn(C([2H])([2H])[2H])cc23)cc1F	81
[2H]C1([2H])c2ncccc2C(=O)N1Cc1ccc(-c2ccc(F)c3nn(C)cc23)cc1C	85
[2H]C1([2H])c2ncccc2C(=O)N1Cc1ccc(-c2ccc3cn(C)nc3c2)cc1	77
[2H]C1([2H])c2ncccc2C(=O)N1Cc1c(F)cc(-c2cc(F)cc3c2cnn3C([2H])([2H])[2H])cc1F	29
[2H]C1([2H])c2ncccc2C(=O)N1Cc1c(F)cc(-c2cn(C)c(=O)c3nn(C([2H])([2H])[2H])cc23)cc1F	84
[2H]C1([2H])c2ncccc2C(=O)N1Cc1c(F)cc(-c2cc(F)c(Cl)c3nn(C)cc23)cc1F	47
[2H]C1([2H])c2ncccc2C(=O)N1Cc1c(C)cc(-c2ccc(OC3CC3)c3nn(C)cc23)cc1F	83
[2H]C1([2H])c2ncc(O)cc2C(=O)N1Cc1c(F)cc(-c2cccc3nn(C)cc23)cc1F	67

[a] [2H]C1([2H])c2ncccc2C(=O)N1Cc1c(Cl)cc(-c2cccc3nn(C)cc23)cc1Cl
[b] [2H]C1([2H])c2ncccc2C(=O)N1Cc1c(F)cc(-c2cnc(OC)c3c2cnn3C)cc1F
Exercise: Hey, between a and b which has a smaller measured Emax? Reply briefly: the label of your chosen item.
Key: b
(b: 27%, a: 63%)

* * *

tested-on: human mAChR M1 (Homo sapiens)
Sequence (P11229 1-460): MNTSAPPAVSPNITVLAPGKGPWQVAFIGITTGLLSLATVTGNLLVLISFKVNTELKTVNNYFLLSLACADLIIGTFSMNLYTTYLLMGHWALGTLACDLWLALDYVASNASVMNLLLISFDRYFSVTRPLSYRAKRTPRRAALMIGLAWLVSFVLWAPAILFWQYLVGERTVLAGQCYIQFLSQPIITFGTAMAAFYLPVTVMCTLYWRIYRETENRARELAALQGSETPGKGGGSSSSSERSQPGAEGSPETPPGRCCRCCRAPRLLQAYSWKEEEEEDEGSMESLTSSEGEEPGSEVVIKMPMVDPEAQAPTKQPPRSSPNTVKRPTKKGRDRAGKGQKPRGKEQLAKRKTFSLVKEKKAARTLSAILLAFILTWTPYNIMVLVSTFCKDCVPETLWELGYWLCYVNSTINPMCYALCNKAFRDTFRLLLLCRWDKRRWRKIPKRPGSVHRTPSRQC
assay-details: mAChR M1 cell-based functional assay (calcium mobilization), PAM mode: increase in the EC20 acetylcholine response
readout-name: EC50 (nM)

smiles-code	tested-on	EC50 [nM]
[2H]C1([2H])c2ncccc2C(=O)N1Cc1c(C)cc(-c2ccc(C)c3nn(C([2H])([2H])[2H])cc23)cc1F	human mAChR M1 (Homo sapiens)	456
[2H]C1([2H])c2ncccc2C(=O)N1Cc1c(F)cc(-c2ccc(F)c3nn(C([2H])([2H])[2H])cc23)cc1F	human mAChR M1 (Homo sapiens)	411
